- System: MS2 coat protein
- assayMethodText: apparent KD of MS2 coat protein; designed switch direction (-1 OFF switch, 1 ON switch): -1; higher = weaker reporter binding
- measurementParameters: Eterna round: R95; input ligand: FMN 200 uM
recordedMetric: apparent KD of MS2 coat protein (nM)
Could you give me the number in nM? Just the number is fine.

1) AAGAAACAUGAGGAUCACCCAUGUGAGGAUAUGACUAAGAAAAGAAAAGAAAGAAGAAUCAGAAGGCACAAAGG [salish99-ex1_r3_053] (puzzle: Exclusion 1) : 29.7
2) UUUAAUUUUUUUUUUUUACAAGCUUUUUGCUCGUCUUAUACAUGAGGAUCACCCAUGUGAGUGAGGGAUAAAUUAUC [JMF 41] (puzzle: Sensor v3, turn-off variant 2) : 19.4
3) UAUUAACAGGCAAGAUCCCACAUGAGGAUCACCCAUGUGCUCGUCUUAUAAGGUACUGUGACGAAAGUCACGGUACC [Sensor 3, v1 - 82] (puzzle: Sensor v3, turn-off variant 1) : 23.2
4) CUGAGGUAGCGGUCCUAUGACAUGAGGAUCACCCAUGUACCUUGCUUCGAGCUUUUUGCUCGUCUUAUGAUUCUCAG [Mat - Sensor v3 - turn-off var 1 - JL Mod - D32] (puzzle: Sensor v3, turn-off variant 1) : 114

Per the record, GGUACUAACACGAGAGUGUUAGUACUAUAAGCUUGUGUUACAUGAGGAUCACCCAUGUCCUCAUAGGCUCGUCUUAU [Mat - Sensor v3 - Turn-off var 2 - D80] (puzzle: Sensor v3, turn-off variant 2) has apparent KD of MS2 coat protein of 209
